Source of measurements: patent US11566007B2

Attribute: pIC50
- system: KRAS G12S (Homo sapiens (Human), UniProt P01116+P62937, G12S)
- Sequence (P01116-2 other isoform, or with tags, fused parts or gaps G12S, one chain of several): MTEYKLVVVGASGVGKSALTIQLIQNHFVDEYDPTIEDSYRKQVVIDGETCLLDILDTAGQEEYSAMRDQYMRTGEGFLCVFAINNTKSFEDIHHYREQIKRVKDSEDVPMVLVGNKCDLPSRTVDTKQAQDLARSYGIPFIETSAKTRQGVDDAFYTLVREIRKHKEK
- test_details: Ras-Raf (BRAF RBD) disruption / FRET / MOA assay, KRAS G12S
- Type: biochemical
- assay_setup: Ras-Raf disruption/FRET/MOA assay; class symbols; read-out: KRAS G12S FRET data IC50
pIC50: −log10 of the molar value.

{"columns": ["molecule", "system", "pIC50"],
 "data": [
  ["C=CC(=O)N1C[C@@H](C(=O)N(C)[C@@H](C(=O)N[C@H]2Cc3cc(O)cc(c3)-c3ccc4c(c3)c(c(-c3cccnc3COC)n4CC)CC(C)(C)COC(=O)[C@@H]3CCCN(N3)C2=O)C(C)C)C[C@H]1C [Example A159]", "KRAS G12S (Homo sapiens (Human), UniProt P01116+P62937, G12S)", "5.00 to 6.00"]
]}

Please find the next molecule below.
Request: Find the recorded pIC50 belonging to CCn1c(-c2cccnc2[C@H](C)OC)c2c3cc(ccc31)-c1cc(O)cc(c1)C[C@H](NC(=O)[C@H](C(C)C)N(C)C(=O)[C@H]1CCN(C(=O)C#CCN3[C@H](C)COC[C@@H]3C)C1)C(=O)N1CCC[C@H](N1)C(=O)OCC(C)(C)C2 (atropisomer, axis not shown) [Example A245] and report it.
Result: 6.00 to 7.00

---

- system: NRAS Q61R (Homo sapiens (Human), UniProt P01111+P62937, Q61R)
- Sequence (P01111 whole entry Q61R): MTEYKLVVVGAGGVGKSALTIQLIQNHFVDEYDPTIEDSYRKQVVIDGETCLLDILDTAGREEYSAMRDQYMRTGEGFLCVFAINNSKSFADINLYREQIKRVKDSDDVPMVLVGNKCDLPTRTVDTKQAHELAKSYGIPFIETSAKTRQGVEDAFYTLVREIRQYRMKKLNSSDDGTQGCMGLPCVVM
- Sequence (P62937 whole entry): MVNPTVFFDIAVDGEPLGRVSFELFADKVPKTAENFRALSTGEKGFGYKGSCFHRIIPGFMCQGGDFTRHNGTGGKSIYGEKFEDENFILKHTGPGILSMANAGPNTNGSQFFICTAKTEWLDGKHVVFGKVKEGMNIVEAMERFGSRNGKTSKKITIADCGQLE
- test_details: Ras-Raf (BRAF RBD) disruption / FRET / MOA assay, NRAS Q61R
- Type: biochemical
- assay_setup: NRAS Q61R; Ras-Raf disruption/FRET/MOA assay; read-out: IC50* NRAS Q61R FRET data
pIC50: −log10 of the molar value.
The entries below are paired with their reported pIC50.

Some compounds with known pIC50 results, for comparison:
{"columns": ["compound", "system", "pIC50"],
 "data": [
  ["CCn1c(-c2cccnc2[C@H](C)OC)c2c3cc(ccc31)N1CCO[C@@](C)(C[C@H](NC(=O)[C@H](C(C)C)N(C)C(=O)C3(F)CCN(C(=O)C#CC(C)(C)N(C)C)CC3)C(=O)N3CCC[C@H](N3)C(=O)OCC(C)(C)C2)C1", "NRAS Q61R (Homo sapiens (Human), UniProt P01111+P62937, Q61R)", "5.00 to 6.00"],
  ["CCn1c(-c2cccnc2[C@H](C)OC)c2c3cc(ccc31)-c1cc(CF)cc(c1)C[C@H](NC(=O)[C@@H](COC1CN(C(=O)C#CC(C)(C)N(C)C)C1)C(C)C)C(=O)N1CCC[C@H](N1)C(=O)OCC(C)(C)C2 (atropisomer, axis not shown)", "NRAS Q61R (Homo sapiens (Human), UniProt P01111+P62937, Q61R)", "< 5.00"],
  ["C=CC(=O)N1CC[C@H](C(=O)N(C)[C@H](C(=O)N[C@H]2Cc3cc(cc(C(F)F)c3)-c3ccc4c(c3)c(c(-c3cccnc3[C@H](C)OC)n4CC(F)(F)F)CC(C)(C)COC(=O)[C@@H]3CCCN(N3)C2=O)C(C)C)C1 (atropisomer, axis not shown)", "NRAS Q61R (Homo sapiens (Human), UniProt P01111+P62937, Q61R)", "5.00 to 6.00"],
  ["C=CC(=O)N1CC[C@H](C(=O)N(C)[C@H](C(=O)N[C@H]2Cc3cc(O)cc(c3)-c3ccc4c(c3)c(c(-c3cc(CN(C)C)cnc3[C@H](C)OC)n4CC)CC(C)(C)COC(=O)[C@@H]3CCCN(N3)C2=O)C(C)C)C1 (atropisomer, axis not shown)", "NRAS Q61R (Homo sapiens (Human), UniProt P01111+P62937, Q61R)", "6.00 to 7.00"],
  ["CCn1c(-c2cccnc2[C@H](C)OC)c2c3cc(ccc31)-c1csc(n1)C[C@H](NC(=O)[C@H](C(C)C)N(C)C(=O)N1CCC13CN(C(=O)/C=C/CN(C)C)C3)C(=O)N1CCC[C@H](N1)C(=O)OCC(C)(C)C2 (atropisomer, axis not shown)", "NRAS Q61R (Homo sapiens (Human), UniProt P01111+P62937, Q61R)", "7.00 to 8.00"]
]}

Request: Quick check: pIC50 on NRAS Q61R (Homo sapiens (Human), UniProt P01111+P62937, Q61R), item CCn1c(-c2cccnc2[C@H](C)OC)c2c3cc(ccc31)-c1cc(F)cc(c1)C[C@H](NC(=O)[C@@H](COC1CN(C(=O)C#CC(C)(C)N(C)C)C1)C(C)C)C(=O)N1CCC[C@H](N1)C(=O)OCC(C)(C)C2 (atropisomer, axis not shown) ?
Result: < 5.00

Request: Entry C=CC(=O)N(C)C[C@@H]1CCN(C(=O)N(C)[C@H](C(=O)N[C@H]2Cc3nc(cs3)-c3ccc4c(c3)c(c(-c3cccnc3[C@H](C)OC)n4CC)CC(C)(C)COC(=O)[C@@H]3CCCN(N3)C2=O)C(C)C)C1 (atropisomer, axis not shown) , system NRAS Q61R (Homo sapiens (Human), UniProt P01111+P62937, Q61R): what pIC50 was measured?
Result: 6.00 to 7.00

Request: Short answer please: pIC50, NRAS Q61R (Homo sapiens (Human), UniProt P01111+P62937, Q61R), entry C=CC(=O)N1CCOC2(CCN(C(=O)N(C)[C@H](C(=O)N[C@H]3C[C@H]4CN(CCO4)c4ccc5c(c4)c(c(-c4cccnc4[C@H](C)OC)n5CC)CC(C)(C)COC(=O)[C@@H]4CCCN(N4)C3=O)C(C)C)CC2)C1
Result: 5.00 to 6.00

Request: Find the measured pIC50: item C=CC(=O)N1CC[C@H](C(=O)N(C)[C@H](C(=O)N[C@H]2Cc3nc(cs3)-c3ccc4c(c3)c(c(-c3cccnc3[C@H](C)OC)n4CC(F)(F)F)CC(C)(C)COC(=O)[C@@H]3CCCN(N3)C2=O)C(C)C)C1 (atropisomer, axis not shown) , target or system NRAS Q61R (Homo sapiens (Human), UniProt P01111+P62937, Q61R).
Result: 6.00 to 7.00

Request: Kindly state the measured pIC50 obtained for C=CC(=O)N1CC[C@H](C(=O)N2CCCCC[C@H]2C(=O)N[C@H]2Cc3cccc(c3)-c3ccc4c(c3)c(c(-c3cccnc3[C@H](C)OC)n4CC)CC(C)(C)COC(=O)[C@@H]3CCCN(N3)C2=O)C1 (atropisomer, axis not shown) with NRAS Q61R (Homo sapiens (Human), UniProt P01111+P62937, Q61R).
Result: 5.00 to 6.00

Request: Lab request: please report pIC50 under test system NRAS Q61R (Homo sapiens (Human), UniProt P01111+P62937, Q61R) for CCn1c(-c2cccnc2[C@H](C)OC)c2c3cc(ccc31)-c1cccc(c1)C[C@H](NC(=O)[C@@H](CO[C@H]1CCN(C(=O)C#CC(C)(C)N(C)C)C1)C(C)C)C(=O)N1CCC[C@H](N1)C(=O)OCC(C)(C)C2 (atropisomer, axis not shown)
Result: < 5.00

Request: Query the reported pIC50 for NRAS Q61R (Homo sapiens (Human), UniProt P01111+P62937, Q61R); item: CO[C@@H](C)c1ncccc1-c1c2c3cc(ccc3n1CC(F)(F)F)-c1cccc(c1)CN(NC(=O)[C@@H](COC1CN(C(=O)C#CC(C)(C)N(C)C)C1)C(C)C)C(=O)N1CCC[C@H](N1)C(=O)OCC(C)(C)C2 (atropisomer, axis not shown)
Result: 5.00 to 6.00

Request: What value of pIC50 on NRAS Q61R (Homo sapiens (Human), UniProt P01111+P62937, Q61R) does C=CC(=O)N1CCOC2(CCN(C(=O)N(C)[C@H](C(=O)N[C@H]3Cc4cc(CF)cc(c4)-c4ccc5c(c4)c(c(-c4cccnc4[C@H](C)OC)n5CC(F)(F)F)CC(C)(C)COC(=O)[C@@H]4CCCN(N4)C3=O)C(C)C)CC2)C1 (atropisomer, axis not shown) have?
Result: 6.00 to 7.00

Request: Under NRAS Q61R (Homo sapiens (Human), UniProt P01111+P62937, Q61R): pIC50 value of CC#CC(=O)N1CC(N(C)C(=O)N(C)[C@H](C(=O)N[C@H]2Cc3nc(cs3)-c3ccc4c(c3)c(c(-c3cccnc3[C@H](C)OC)n4CC)CC(C)(C)COC(=O)[C@@H]3CCCN(N3)C2=O)C(C)C)C1 (atropisomer, axis not shown) ?
Result: 5.00 to 6.00

Request: Give pIC50 (NRAS Q61R (Homo sapiens (Human), UniProt P01111+P62937, Q61R)) of the following compound: C=CC(=O)N1C[C@@H](C)N(C(=O)N(C)[C@H](C(=O)N[C@H]2Cc3nc(cs3)-c3ccc4c(c3)c(c(-c3cccnc3[C@H](C)OC)n4CC)CC(C)(C)COC(=O)[C@@H]3CCCN(N3)C2=O)C(C)C)[C@H](C)C1 (atropisomer, axis not shown)
Result: > 8.00
